Tested system: human KOPr (Homo sapiens)
Construct: expressed in transfected cells; HEK293-Glo20F cells (cAMP)
Sequence (P41145 whole entry): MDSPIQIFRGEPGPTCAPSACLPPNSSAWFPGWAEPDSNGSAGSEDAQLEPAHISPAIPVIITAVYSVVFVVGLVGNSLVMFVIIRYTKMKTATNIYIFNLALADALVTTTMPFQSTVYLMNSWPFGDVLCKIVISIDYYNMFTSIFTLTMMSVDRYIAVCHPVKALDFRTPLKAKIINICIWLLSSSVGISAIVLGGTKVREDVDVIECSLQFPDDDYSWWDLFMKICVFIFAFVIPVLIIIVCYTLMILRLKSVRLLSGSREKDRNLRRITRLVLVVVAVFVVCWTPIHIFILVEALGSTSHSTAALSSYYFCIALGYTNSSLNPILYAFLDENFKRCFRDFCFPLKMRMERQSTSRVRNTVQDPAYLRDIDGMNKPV
Assay name: Glo-sensor cAMP assay
Format: cell-based
Condition: read-out: KOPr (cAMP) EC50
Measured metric: EC50

Consider the compound shown here: Cc1cc(O)cc(C)c1C[C@H](N)C(=O)N[C@H](CCCNC(=N)N)C(=O)N[C@H]1Cc2ccccc2CN(CCC(N)=O)C1=O [KGOP01, reference compound] What is its recorded EC50?
> 10 µM

* * *

Tested system: NPFF2R (Homo sapiens)
Sequence (Q9Y5X5 whole entry): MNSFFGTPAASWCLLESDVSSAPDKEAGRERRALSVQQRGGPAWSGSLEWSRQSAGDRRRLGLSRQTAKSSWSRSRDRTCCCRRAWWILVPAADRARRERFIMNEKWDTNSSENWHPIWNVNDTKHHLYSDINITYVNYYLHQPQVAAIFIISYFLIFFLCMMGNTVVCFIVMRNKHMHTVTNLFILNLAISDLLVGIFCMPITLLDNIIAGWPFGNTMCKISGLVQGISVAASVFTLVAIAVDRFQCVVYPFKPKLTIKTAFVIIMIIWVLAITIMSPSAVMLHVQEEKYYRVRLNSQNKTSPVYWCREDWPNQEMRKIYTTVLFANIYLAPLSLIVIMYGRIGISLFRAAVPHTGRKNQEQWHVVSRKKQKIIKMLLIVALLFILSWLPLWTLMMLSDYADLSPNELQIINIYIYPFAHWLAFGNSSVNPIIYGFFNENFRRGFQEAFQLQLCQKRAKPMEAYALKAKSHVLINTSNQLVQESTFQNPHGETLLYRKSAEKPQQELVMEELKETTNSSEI
Assay name: [35S]-GTPγS binding assay;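 also: Emax relative to NPFF as 100%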
Format: biochemical
Design: expressed in transfected cells
Starred links: 1 amine or outer side, 2 acyl side, 3 side chain; linkers in the order of their positions; H or OH if unused. Non-standard residues stand in square brackets, D forms with d. Residues, ends and D or L forms follow the SMILES beside them. *: point of attachment. X1 = O=C1[C@@H](N[*:1])Cc2ccccc2CN1CCC(=O)[*:2]; Dmt = Cc1cc(O)cc(C)c1C[C@H](N)C(=O)O; X2 = c1ccc2[nH]c(*)nc2c1
For each entry below, report its Emax value.
Give bare numbers, in %.

Provide each entry's Emax from the list below.
1. CNC(=O)[C@H](Cc1ccccc1)NC(=O)[C@@H](CCCNC(=N)N)NC(=O)[C@@H](N)Cc1c(C)cc(O)cc1C [KGFF13, H-Dmt-D-Arg-Phe-NHMe] (HELM PEPTIDE1{[Cc1cc(O)cc(C)c1C[C@H](N)C(=O)[*:2]].[dR].F.[CN[*:1]]}$$$$V2.0)
2. Cc1cc(O)cc(C)c1C[C@H](N)C(=O)N[C@H](CCCNC(=N)N)C(=O)N[C@H]1Cc2ccccc2CN(CCC(=O)N[C@@H](CCCNC(=N)N)C(=O)N[C@@H](Cc2ccccc2)C(N)=O)C1=O [KGFF03, H-Dmt-D-Arg-Aba-β-Ala-Arg-Phe-NH2] (HELM PEPTIDE1{[Cc1cc(O)cc(C)c1C[C@H](N)C(=O)[*:2]].[dR].[O=C1[C@@H](N[*:1])Cc2ccccc2CN1CCC(=O)[*:2]].R.F.[am]}$$$$V2.0)
3. Cc1cc(O)cc(C)c1C[C@H](N)C(=O)N[C@H](CCCNC(=N)N)C(=O)N[C@H]1Cc2ccccc2CN(CCC(=O)N[C@@H](CCCCNc2nc3ccccc3[nH]2)C(=O)N[C@@H](Cc2ccccc2)C(N)=O)C1=O [KGFF14, H-Dmt-D-Arg-Aba-β-Ala-Lys(Bim)-Phe-NH2] (H-[Dmt][dR][X1]K(X2)F-NH2)

[68, 111, 73]

* * *

Tested system: human MOPr (Homo sapiens, UniProt P35372)
Sequence (P35372 whole entry): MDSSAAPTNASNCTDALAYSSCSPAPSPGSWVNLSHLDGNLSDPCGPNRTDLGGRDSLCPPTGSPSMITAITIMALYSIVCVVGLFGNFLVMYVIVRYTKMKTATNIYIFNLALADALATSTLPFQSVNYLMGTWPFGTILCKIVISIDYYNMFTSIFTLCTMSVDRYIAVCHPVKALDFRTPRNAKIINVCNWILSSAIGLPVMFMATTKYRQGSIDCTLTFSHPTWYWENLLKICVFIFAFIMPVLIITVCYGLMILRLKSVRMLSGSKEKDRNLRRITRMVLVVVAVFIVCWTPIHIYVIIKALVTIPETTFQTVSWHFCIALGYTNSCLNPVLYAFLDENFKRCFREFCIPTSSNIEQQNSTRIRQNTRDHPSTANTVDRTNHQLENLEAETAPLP
Assay name: BRET1 β-arrestin-2 recruitment assay
Assay type: cell-based
Set-up: expressed in transfected cells; host or cells: HEK293 cells stably expressing eYFP-β-arrestin-2, transiently transfected with the Rluc8-MOP plasmid
Condition: Table 3B; — = non-detectable recruitment; read-out: MOPr (β-arrestin-2) EC50
Starred links: 1 amine or outer side, 2 acyl side, 3 side chain; linkers in the order of their positions; H or OH if unused. Non-standard residues stand in square brackets, D forms with d. Residues, ends and D or L forms follow the SMILES beside them. Nva(5-(4-Bn-piperidin-1-yl)) = N[C@@H](CCCN1CCC(Cc2ccccc2)CC1)C(=O)O; X1 = O=C1[C@@H](N[*:1])Cc2ccccc2CN1CCC(=O)[*:2]; Dmt = Cc1cc(O)cc(C)c1C[C@H](N)C(=O)O; NMeβAla = CN(CCC(=O)[*:2])[*:1]; βAla = NCCC(=O)O
For each entry below, report its pEC50 value.
Answers are plain numbers, as −log10 of the molar value.

Cc1cc(O)cc(C)c1C[C@H](N)C(=O)N[C@H](CCCNC(=N)N)C(=O)N[C@H]1Cc2ccccc2CN(CCC(=O)N[C@@H](CCCN2CCC(Cc3ccccc3)CC2)C(=O)N[C@@H](Cc2c[nH]c3ccccc23)C(N)=O)C1=O [DP0005, H-Dmt-D-Arg-Aba-β-Ala-Bpa-Trp-NH2] (H-[Dmt][dR][X1][Nva(5-(4-Bn-piperidin-1-yl))]W-NH2)
7.01
Cc1cc(O)cc(C)c1C[C@H](N)C(=O)N[C@H](CCCNC(=N)N)C(=O)N[C@H]1Cc2ccccc2CN(CCC(=O)N[C@@H](CCCN2CCC(Cc3ccccc3)CC2)C(=O)N[C@@H](Cc2ccccc2)C(=O)NCCC(N)=O)C1=O [DP0016, H-Dmt-D-Arg-Aba-β-Ala-Bpa-Phe-β-Ala-NH2] (H-[Dmt][dR][X1][Nva(5-(4-Bn-piperidin-1-yl))]F[βAla]-NH2)
6.40
Cc1cc(O)cc(C)c1C[C@H](N)C(=O)N[C@H](CCCNC(=N)N)C(=O)N[C@@H](Cc1ccccc1)C(=O)N(C)CCC(=O)N[C@@H](CCCN1CCC(Cc2ccccc2)CC1)C(=O)N[C@@H](Cc1ccccc1)C(N)=O [DP0013, H-Dmt-D-Arg-Phe-N(Me)-β-Ala-Bpa-Phe-NH2] (H-[Dmt][dR]F[NMeβAla][Nva(5-(4-Bn-piperidin-1-yl))]F-NH2)
7.69

Consider the compound shown here: Cc1cc(O)cc(C)c1C[C@H](N)C(=O)N[C@H](CCCNC(=N)N)C(=O)N[C@H]1Cc2ccccc2CN(CCC(=O)N[C@@H](CCCN2CCC(Cc3ccccc3)CC2)C(=O)N[C@@H](CC(C)C)C(N)=O)C1=O [DP0003, H-Dmt-D-Arg-Aba-β-Ala-Bpa-Leu-NH2] (H-[Dmt][dR][X1][Nva(5-(4-Bn-piperidin-1-yl))]L-NH2) What is its recorded pEC50?
7.43

* * *

Let's go through some recorded IC50 values for human NPFF1R (Homo sapiens, UniProt Q9GZQ6) together.
Starred links: 1 amine or outer side, 2 acyl side, 3 side chain; linkers in the order of their positions; H or OH if unused. Non-standard residues stand in square brackets, D forms with d. Residues, ends and D or L forms follow the SMILES beside them. Nva(5-(4-Bn-piperidin-1-yl)) = N[C@@H](CCCN1CCC(Cc2ccccc2)CC1)C(=O)O; X5 = O=C1[C@@H](N[*:1])Cc2ccccc2CN1CCCC(=O)[*:2]; Dmt = Cc1cc(O)cc(C)c1C[C@H](N)C(=O)O

The cases that follow already have their IC50 on record.
Cc1cc(O)cc(C)c1C[C@H](N)C(=O)N[C@H](CCCNC(=N)N)C(=O)N[C@H]1Cc2ccccc2CN(CCCC(=O)N[C@@H](CCCN2CCC(Cc3ccccc3)CC2)C(=O)N[C@@H](Cc2ccccc2)C(N)=O)C1=O [DP0018, H-Dmt-D-Arg-AbaGABA-Bpa-Phe-NH2] (H-[Dmt][dR][X5][Nva(5-(4-Bn-piperidin-1-yl))]F-NH2)
40 to 400 nM
Cc1cc(O)cc(C)c1C[C@H](N)C(=O)N[C@H](CCCNC(=N)N)C(=O)N[C@@H](Cc1ccccc1)C(=O)NCCC(=O)N[C@@H](CCCN1CCC(Cc2ccccc2)CC1)C(=O)N[C@@H](Cc1ccccc1)C(N)=O [DP0019, H-Dmt-D-Arg-Phe-β-Ala-Bpa-Phe-NH2] (HELM PEPTIDE1{[Cc1cc(O)cc(C)c1C[C@H](N)C(=O)[*:2]].[dR].F.[bAla].[O=C([C@H](CCCN1CCC(Cc2ccccc2)CC1)N[*:1])[*:2]].F.[am]}$$$$V2.0)
40 to 400 nM

From here, focus on the item given below.
Consider the compound shown here: Cc1cc(O)cc(C)c1C[C@H](N)C(=O)N[C@H](CCCNC(=N)N)C(=O)N[C@H]1Cc2ccccc2CN(CCCC(=O)N[C@@H](CCCN2CCC(Cc3ccccc3)CC2)C(=O)N[C@@H](Cc2c[nH]c3ccccc23)C(N)=O)C1=O [DP0022, H-Dmt-D-Arg-AbaGABA-Bpa-Trp-NH2] (H-[Dmt][dR][X5][Nva(5-(4-Bn-piperidin-1-yl))]W-NH2) What is its recorded IC50?
~40 nM

* * *

Tested system: NPFF2R (Homo sapiens)
Assay name: [35S]-GTPγS binding assay;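 also: Emax relative to NPFF as 100%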
Type: biochemical
Design: expressed in transfected cells
Starred links: 1 amine or outer side, 2 acyl side, 3 side chain; linkers in the order of their positions; H or OH if unused. Non-standard residues stand in square brackets, D forms with d. Residues, ends and D or L forms follow the SMILES beside them. *: point of attachment. X1 = O=C1[C@@H](N[*:1])Cc2ccccc2CN1CCC(=O)[*:2]; Dmt = Cc1cc(O)cc(C)c1C[C@H](N)C(=O)O; X3 = c1ccc2oc(*)nc2c1; X4 = c1ccc2sc(*)nc2c1
For each entry below, report its Emax value.
Answers are plain numbers, in %.

Cc1cc(O)cc(C)c1C[C@H](N)C(=O)N[C@H](CCCNC(=N)N)C(=O)N[C@H]1Cc2ccccc2CN(CC(=O)N[C@@H](CCCNC(=N)N)C(=O)N[C@@H](Cc2ccccc2)C(N)=O)C1=O
95
Cc1cc(O)cc(C)c1C[C@H](N)C(=O)N[C@H](CCCNC(=N)N)C(=O)N[C@@H](Cc1ccccc1)C(N)=O [KGFF07, H-Dmt-D-Arg-Phe-NH2] (HELM PEPTIDE1{[Cc1cc(O)cc(C)c1C[C@H](N)C(=O)[*:2]].[dR].F.[am]}$$$$V2.0)
87
Cc1cc(O)cc(C)c1C[C@H](N)C(=O)N[C@H](CCCNC(=N)N)C(=O)N[C@H]1Cc2ccccc2CN(CCC(=O)N[C@@H](CCCCNc2nc3ccccc3s2)C(=O)N[C@@H](Cc2ccccc2)C(N)=O)C1=O [KGFF16, H-Dmt-D-Arg-Aba-β-Ala-Lys(Bth)-Phe-NH2] (H-[Dmt][dR][X1]K(X4)F-NH2)
88
Cc1cc(O)cc(C)c1C[C@H](N)C(=O)N[C@H](CCCNC(=N)N)C(=O)N[C@H]1Cc2ccccc2CNC1=O
32
Cc1cc(O)cc(C)c1C[C@H](N)C(=O)N[C@H](CCCNC(=N)N)C(=O)N[C@H]1Cc2ccccc2CN(CC(=O)N[C@@H](CCCN)C(=O)N[C@@H](Cc2ccccc2)C(N)=O)C1=O
67

Provide each entry's Emax from the list below.
1. Cc1cc(O)cc(C)c1C[C@H](N)C(=O)N[C@H](CCCNC(=N)N)C(=O)N[C@H]1Cc2ccccc2CN(CCC(=O)N[C@@H](CCCN2CCC(Cc3ccccc3)CC2)C(=O)N[C@@H](Cc2ccccc2)C(N)=O)C1=O
2. Cc1cc(O)cc(C)c1C[C@H](N)C(=O)N[C@H](CCCNC(=N)N)C(=O)N[C@H]1Cc2ccccc2CN(CCC(=O)N[C@@H](CCCCNc2nc3ccccc3o2)C(=O)N[C@@H](Cc2ccccc2)C(N)=O)C1=O [KGFF15, H-Dmt-D-Arg-Aba-β-Ala-Lys(Box)-Phe-NH2] (H-[Dmt][dR][X1]K(X3)F-NH2)
3. Cc1cc(O)cc(C)c1C[C@H](N)C(=O)N[C@H](CCCNC(=N)N)C(=O)N[C@H]1Cc2ccccc2CN(CCC(=O)N[C@@H](CCCN2CCCCC2)C(=O)N[C@@H](Cc2ccccc2)C(N)=O)C1=O

[38, 105, 97]
